test system: P388 leukemia ip, CD2F1 mice, survival T/C; assay: NCI In Vivo Anticancer Drug Screen. Data for tumor model P388 Leukemia (intraperitoneal) in CD2F1 (CDF1) mice; settings: endpoint: median survival time; dose: 100.0 mg/kg/injection; schedule: Q01DX005 (ip); vehicle: saline with Tween-80; higher = longer survival
Inconclusive results and toxic doses are left out.
readoutType: T/C

compound	testResult
O=C1C2C3C=CC(O3)C2C(=O)N1/N=C/c1cccc2ccccc12 (stereo not drawn)	96 % of control
CC(=O)Nc1cccc2[nH]c3ccccc3c(=O)c12	103 % of control
CCOC(=O)C1CCC(=O)C(CC)=C1C (stereo not drawn)	103 % of control
S=C1NCCNC(=S)SSSS1	114 % of control
O=C1C=CC(=Nc2cc(Cl)c(O)c(Cl)c2)C=C1	92 % of control
NC(Cc1c(Br)[nH]c2ccccc12)C(=O)O (stereo not drawn)	103 % of control
COC(=O)C1CCCCOCCOCCOCCOCCOCCCCCC1=O (stereo not drawn)	102 % of control
COC1OC2COC(c3ccccc3)OC2C(N)C1O (stereo not drawn)	101 % of control
COc1cccc(/C=C/C(C)=N/NC(N)=S)c1	101 % of control
O=S1(=O)N=C(Sc2nc3ccccc3s2)c2ccccc21	107 % of control
CC(C)(C)SSCCN	109 % of control
Cc1ccc(C2(C(=O)C=[N+]=[N-])OC2(C)C)cc1 (stereo not drawn)	115 % of control
CC12CCC/C(=N\NC(N)=S)C1C(=O)NC(=O)C2 (stereo not drawn)	96 % of control
